SYSTEM TESTED: human GPR119 (Homo sapiens)
Construct: expressed in transfected cells
Sequence (Q8TDV5 whole entry): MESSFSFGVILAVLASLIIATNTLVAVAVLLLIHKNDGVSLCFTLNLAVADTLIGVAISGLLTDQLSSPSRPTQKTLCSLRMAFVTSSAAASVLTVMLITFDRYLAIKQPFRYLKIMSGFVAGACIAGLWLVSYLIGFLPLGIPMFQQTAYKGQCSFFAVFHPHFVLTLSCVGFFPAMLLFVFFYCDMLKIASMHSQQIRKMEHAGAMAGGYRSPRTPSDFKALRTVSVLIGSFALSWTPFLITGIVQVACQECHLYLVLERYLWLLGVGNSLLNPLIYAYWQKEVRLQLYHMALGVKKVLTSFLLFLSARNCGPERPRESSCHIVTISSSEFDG
PROTOCOL DESCRIPTION: Intracellular cAMP increase in human GPR119 introduced cells (HitHunter cAMP XS+ Assay)
Assay type: cell-based
CONDITION SET: Table 17; method similar to Example 86; hGPR119 stable cells, intracellular cAMP
READOUT LABEL: EC50 (nM)

{"columns": ["SAMPLE SMILES", "EC50 [nM]"],
 "data": [
  ["CC(C)(C)OC(=O)N1CCC(c2ccc(COc3ccc(-n4cnnn4)cc3)nc2)CC1", 34],
  ["CCC(C)(C)OC(=O)N1CCC(c2ccc(COc3ccc(S(C)(=O)=O)cc3)nc2)CC1", 114],
  ["CC(C)(C)OC(=O)N1CCC(c2ccc(COc3ccc(S(C)(=O)=O)cc3Cl)nc2)CC1", 21.2],
  ["CC(C)(C)OC(=O)N1CCC(c2cnc(COc3ccc(S(C)(=O)=O)cc3)c(F)c2)CC1", 22.4]
]}

[I] CC(C)(C)OC(=O)N1CCC(c2ccc(COc3ccc(-n4cnnn4)cc3F)nc2)CC1
[II] CC(C)c1nc(N2CCC(c3ccc(COc4ccc(S(C)(=O)=O)cc4)nc3)CC2)no1
[III] Cc1cc(C2CCN(C(=O)OC(C)(C)C)CC2)cnc1COc1ccc(-n2cnnn2)cc1F
[IV] Cc1cc(C2CCN(C(=O)OC(C)(C)C)CC2)cnc1COc1ccc(S(C)(=O)=O)cc1Br
# input In this exercise, place the 4 compounds in ascending sequence of their recorded EC50. Provide your answer as the labels ordered per the instruction.
# output III, IV, I, II

----------
Reported melting point values for the following compounds.

Take a look at these entries with their results.
{"columns": ["SAMPLE SMILES", "melting point"],
 "data": [
  ["CCC(C)(C)OC(=O)N1CCC(c2ccc(COc3ccc(S(C)(=O)=O)cc3)nc2)CC1", "114 to 115 °C"],
  ["Cc1cc(C2CCN(C(=O)OC(C)(C)C)CC2)cnc1COc1ccc(S(C)(=O)=O)cc1Cl", "143 to 145 °C"],
  ["CC(C)(C)OC(=O)N1CCC(c2ccc(COc3cccc([N+](=O)[O-])c3)nc2)CC1", "94 to 96 °C"],
  ["CC(C)(C)OC(=O)N1CCC(c2ccc(COc3ccc([N+](=O)[O-])cc3)nc2)CC1", "149 to 150 °C"],
  ["CC(C)(C)CC(=O)N1CCC(c2ccc(COc3ccc(S(C)(=O)=O)cc3)nc2)CC1", "140 to 142 °C"],
  ["CCOC(=O)N1CCC(c2ccc(COc3ccc(S(C)(=O)=O)cc3)nc2)CC1", "119 to 121 °C"]
]}

# input Read the entry CCCCCc1cnc(N2CCC(c3ccc(COc4ccc(-n5cnnn5)cc4)nc3)CC2)nc1 and write its reported melting point.
# output 174 to 176 °C

# input Read the entry CC(C)(C)OC(=O)N1CC=C(c2cnc(COc3ccc(S(C)(=O)=O)cc3)cc2Cl)CC1 and write its reported melting point.
# output 148 to 150 °C

----------
READOUT LABEL: melting point

Take a look at these entries with their results.
{"columns": ["SAMPLE SMILES", "melting point"],
 "data": [
  ["CCOC(=O)c1ccc(OCc2ccc(C3CCN(C(=O)OC(C)(C)C)CC3)cn2)cc1F", "92 to 95 °C"],
  ["COc1cc(C2CCN(C(=O)OC(C)(C)C)CC2)cnc1COc1ccc(S(C)(=O)=O)cc1", "153 to 154 °C"],
  ["COc1cc(S(C)(=O)=O)ccc1OCc1ccc(C2CCN(C(=O)OC(C)(C)C)CC2)cn1", "135 to 138 °C"],
  ["CCCCCc1cnc(N2CCC(c3ccc(COc4ccc(C#N)c(F)c4)nc3)CC2)nc1", "92 to 94 °C"],
  ["CC(C)c1nc(N2CCC(c3ccc(COc4ccc(S(C)(=O)=O)cc4)nc3)CC2)no1", "143 to 145 °C"]
]}

# input Read the entry Cc1cc(C2CCN(C(=O)OC(C)(C)C)CC2)cnc1COc1ccc(S(C)(=O)=O)cc1 and write its reported melting point.
# output 130 to 132 °C

# input Read the entry CC(C)(C)OC(=O)N1CCC(c2ccc(COc3ccc(NS(C)(=O)=O)cc3)nc2)CC1 and write its reported melting point.
# output 171 to 173 °C

# input Read the entry CC(C)COC(=O)N1CCC(c2ccc(COc3ccc(S(C)(=O)=O)cc3)nc2)CC1 and write its reported melting point.
# output 114 to 117 °C

# input Read the entry CCc1cnc(N2CCC(c3ccc(COc4ccc(S(C)(=O)=O)cc4)nc3)CC2)nc1 and write its reported melting point.
# output 185 to 187 °C

# input Read the entry CCc1cnc(N2CCC(c3ccc(COc4ccc(C#N)c(F)c4)nc3)CC2)nc1 and write its reported melting point.
# output 129 to 131 °C

# input Read the entry CCCCCc1cnc(N2CCC(c3ccc(COc4ccc(S(C)(=O)=O)cc4)nc3)CC2)nc1 and write its reported melting point.
# output 154 to 157 °C

# input Read the entry CC(C)(C)OC(=O)N1CCC(c2ccc(COc3ccc(-n4cncn4)cc3)nc2)CC1 and write its reported melting point.
# output 147 to 150 °C

# input Read the entry CCCc1cnc(N2CCC(c3ccc(COc4ccc(S(C)(=O)=O)cc4)nc3)CC2)nc1 and write its reported melting point.
# output 164 to 166 °C

# input Read the entry CC(C)(C)OC(=O)N1CCC(c2ccc(COc3ccc(S(C)(=O)=O)cc3)cn2)CC1 and write its reported melting point.
# output 140 to 142 °C
